biological target: EGFR Ex19del G724S (Homo sapiens, UniProt P00533, DEL746-750/G724S); construct: expressed in transfected cells; host or cells: Ba/F3; test: Ba/F3 drug screening, Cell Titer Glo, IC50 Mut/WT; assay type: cell-based; details: PACC; Ex19del G724S; Ba/F3; 72 hours
reportedProperty: ratio of IC50 for cells with mutant EGFR to IC50 for cells with wildtype EGFR (Mut/WT)

# smilesData, reportedValue
data = [
    ("COc1cc2ncnc(Nc3cccc(Cl)c3F)c2cc1OC(=O)N1CCN(C)C[C@H]1C", 4.812),
    ("COc1cc2ncnc(Nc3ccc(F)c(Cl)c3)c2cc1NC(=O)/C=C/CN1CCCCC1", 0.1707),
    ("CNC(=O)CN1CCC(Oc2cc3c(Nc4cccc(Cl)c4F)ncnc3cc2OC)CC1", 27.39),
    ("CN(C)C/C=C/C(=O)Nc1cc2c(Nc3ccc(Cl)c(Br)c3)ncnc2cn1", 2.658),
]

---

target: EGFR R776H (Homo sapiens, UniProt P00533, R776H); construct: host or cells: Ba/F3; test: Ba/F3 drug screening, Cell Titer Glo, IC50 Mut/WT; type: cell-based; conditions: PACC; R776H; Ba/F3; 72 hours
reportedProperty: ratio of IC50 for cells with mutant EGFR to IC50 for cells with wildtype EGFR (Mut/WT)

# smilesData, systemName, reportedValue
data = [
    ("COc1cc2ncnc(Nc3ccc(F)c(Cl)c3)c2cc1NC(=O)/C=C/CN1CCCCC1", "EGFR R776H (Homo sapiens, UniProt P00533, R776H)", 0.001367),
    ("CNC(=O)CN1CCC(Oc2cc3c(Nc4cccc(Cl)c4F)ncnc3cc2OC)CC1", "EGFR R776H (Homo sapiens, UniProt P00533, R776H)", 0.001939),
    ("COc1cc2ncnc(Nc3cccc(Cl)c3F)c2cc1OC(=O)N1CCN(C)C[C@H]1C", "EGFR R776H (Homo sapiens, UniProt P00533, R776H)", 0.02185),
    ("CN(C)C/C=C/C(=O)Nc1cc2c(Nc3ccc(Cl)c(Br)c3)ncnc2cn1", "EGFR R776H (Homo sapiens, UniProt P00533, R776H)", 0.1639),
]

---

target: EGFR Ex19del G796S (Homo sapiens, UniProt P00533, DEL746-750/G796S); construct: expressed in transfected cells; host or cells: Ba/F3; assay: Ba/F3 drug screening, Cell Titer Glo, IC50 Mut/WT; assay type: cell-based; conditions: PACC; Ex19del G796S; Ba/F3; 72 hours
reportedProperty: ratio of IC50 for cells with mutant EGFR to IC50 for cells with wildtype EGFR (Mut/WT)

# smilesData, reportedValue
rows = [
    ("COc1cc2ncnc(Nc3cccc(Cl)c3F)c2cc1OC(=O)N1CCN(C)C[C@H]1C", 4.084),
    ("COc1cc2ncnc(Nc3ccc(F)c(Cl)c3)c2cc1NC(=O)/C=C/CN1CCCCC1", 0.2371),
    ("CN(C)C/C=C/C(=O)Nc1cc2c(Nc3ccc(Cl)c(Br)c3)ncnc2cn1", 25.15),
    ("CNC(=O)CN1CCC(Oc2cc3c(Nc4cccc(Cl)c4F)ncnc3cc2OC)CC1", 3.423),
]
